B1: TPR t1 (parent)
chain: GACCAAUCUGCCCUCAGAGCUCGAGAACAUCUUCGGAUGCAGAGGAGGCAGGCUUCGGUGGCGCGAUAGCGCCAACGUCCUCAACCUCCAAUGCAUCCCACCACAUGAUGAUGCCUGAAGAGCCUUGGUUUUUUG

- Variants of: B1
- Assay protocol: polymerase ribozyme fitness, log enrichment relative to wild type (log ratio); higher = more active; in vitro selection for triplet polymerase activity
Observed property: polymerase ribozyme fitness (log ratio)
Provide a numeric answer; units are not to be included.

The following variants have reported results that may help.
                    variant_name  value_observed
0                 G36U G44A G63A           -3.52
1                      C13U G63C           -0.36
2                 C13G G48U C53A           -2.34
3                      U33G U87A           -6.14
4  C4G C40U A66C C86G C97A C115G           -6.24

For this variant ( A6U U9C G60C ), measured polymerase ribozyme fitness (log ratio) is -0.604

Summary for this variant, A16C G44U U78C : polymerase ribozyme fitness (log ratio) is -4.35

The measured polymerase ribozyme fitness (log ratio) associated with C99U U131C reads -2.72

For record A29U G52A G113A the listed polymerase ribozyme fitness (log ratio) is -2.09

For reference, reported polymerase ribozyme fitness (log ratio) for A5G C56A A74G C97U C123A stands at 0.643
